Assay: Maximum endothermic temperature of amine compound (DSC)
Assay type: physicochemical
Settings: DSC 23 to 350° C., 10° C./minute, nitrogen; evaporation of the amine compound
Provide the reported Maximum endothermic temperature of each item.
Please give a number only; it is taken to be in °C.

# query: Maximum endothermic temperature of entry CC1(C)CC(N)CC(C)(CN)C1 (centres unmarked) [IPDA, isophoronediamine]
168.8

# query: Maximum endothermic temperature of entry NC1CCC(CC2CCC(N)CC2)CC1 (centres unmarked) [PACM, 4,4′-methylenebis(cyclohexylamine)]
218.5

# query: Maximum endothermic temperature of entry NCCN1CCNCC1 [AEP, N-(2-aminoethyl)piperazine]
140.2

# query: Maximum endothermic temperature of entry NCc1cccc(CN)c1 [MXDA, metaxylylenediamine]
183.5

# query: Maximum endothermic temperature of entry NCC1CCCC(CN)C1 (centres unmarked) [1,3-BAC, 1,3-bis(aminomethyl)cyclohexane]
160.9
